Test system: NCI/ADR-RES ovarian
Experiment: NCI tumour cell line growth inhibition, 48 h; in the data active = GI50 below about 0.43 µM; inactive = the rest
Hello, when you answer, please use one of the following outcomes: TRUE for active, FALSE for inactive

CCOC(=O)c1cn2ncnc(Oc3ccc(NC(=O)NCCN(CC)CC)c(Cl)c3)c2c1C; FALSE
COc1cc(C(=O)/C=C/c2c(-c3cccs3)nc3ccccn23)cc(OC)c1OC; FALSE

Can you look up the reported call for c1ccc([P+](CCC[P+](c2ccccc2)(c2ccccc2)c2ccccc2)(c2ccccc2)c2ccccc2)cc1 for me?
FALSE

Can you look up the reported call for C[C@@H]1CCC2[C@@H](C)[C@H](OC(=O)CCC(=O)NCCNC(=O)Cc3cc(=O)oc4cc(N(C)C)ccc34)O[C@@H]3O[C@]4(C)CC[C@@H]1C23OO4 (some centres undefined) for me?
FALSE
